experimental-details: protein stability index of a GFP-peptide fusion (GPS, HEK-293T) (PSI 1-6); higher = more stable;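 note: 24-mer peptide tiles fused after GFP, lentivirally expressed, FACS-sorted into six equal bins by GFP/DsRed ratio, decoded by Illumina sequencing, PSI is the read-weighted mean bin number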
measurement-setup: treatment: DMSO; c terminus: a fixed tail appended
measure: protein stability index
Numbers only.

VRLAARQEDAPMIEPLVPEEKMET [EPB41L3] :: 4.9

For every item in the list below, what is its measured protein stability index?
1. ETAPLTLESLPTDPLLLILSFLDY [FBXO3]
2. LPHQSHRQRSSLAKINIVYQELNY [SCNN1D]

2.36
2.54

###

experimental-details: protein stability index of a GFP-peptide fusion (GPS, HEK-293T) (PSI 1-6); higher = more stable
measurement-setup: treatment: MLN4924 1 uM, 8 h; c terminus: a fixed tail appended
Rule: protein stability index under 4 gives false, otherwise true.

MDEESELIQPQDQSCWAFLPDLCL [FBXO39] :: false
PVHTTILNPHIHLMGDESACIAYI [CAMK2A] :: false
QYPAGTQGEQLEVPERLLVVLDME [SPSB2] :: false
ESVEQLESRIVEQENAIQTMELRN [SNX8] :: true

Reported protein stability index at or above 4? TFVSGGCDKKAMVWDMRSGQCVQA [GNB5]
false

Reported protein stability index at or above 4? LYLEEIADRIIEVDMECQTDAFLD [RSPH3]
false

Reported protein stability index at or above 4? MADADEGFGLAHTPLEPDAKDLPC [TBX5]
true

Reported protein stability index at or above 4? PYKCVQPDCGKAFVSRYKLMRHMA [PLAGL1]
false

Reported protein stability index at or above 4? FPAKYIYDPWNAPEGIQKVAKCLI [CRY1]
false

Reported protein stability index at or above 4? VGSDEEDDSGKDKKKKTKKIKEKY [HSP90AB1]
true

Reported protein stability index at or above 4? VDMECQTDAFLDRPPTPLFIPAKT [RSPH3]
true

Reported protein stability index at or above 4? PNVLCSMSGKSPVESSLNVKTKKN [FBXO34]
true

Reported protein stability index at or above 4? LSPDPEERPGAEGAPLLPPPLPPP [ACBD3]
true

Reported protein stability index at or above 4? RSSGLVQRRTEASRNAADKERAAG [GOLPH3]
true

###

experimental-details: protein stability index of a GFP-peptide fusion (GPS, HEK-293T) (PSI 1-6); higher = more stable
measurement-setup: treatment: MLN4924 1 uM, 8 h; c terminus: a fixed tail appended
measure: protein stability index

Below, each entry is followed by its recorded protein stability index result.
IFMLCTLVLAIPLLLILVSYVHIL [OR10K2] :: 3.18
QVLYEWEQGFSQSFTQEQVADIDG [CTNNB1] :: 4.09
SESGADTISVNQTRVNLSSDTEST [DLC1] :: 5.3

For every item in the list below, what is its measured protein stability index?
1. VLLEEPLPLETARESPSFKLEPME [ZNF263]
2. VRRQRSADEQLHCAGKAKRSGGHA [ESR2]
3. LTVRKSQSEPSEQDGVLDLSTKKS [LCOR]
4. DVIIEVNGVNVLDEPYEKVVDRIQ [PDZK1]

[4.28, 4.75, 5.22, 3.81]

For every item in the list below, what is its measured protein stability index?
1. AIGGTYLGPAFRGLKGRTLYPAVS [SPSB2]
2. TLDVYNPFETREPPPAYEPPAPAP [SCAMP3]
3. VKEELSQKFDTLYAILDEKKSELL [TRIM63]
4. RPGHLPGLLLGSHGLLGSPVRAAA [CDC25B]
5. MLDMKVNPIQGLASKWDYEKNEWK [COX4I1]

1: 2.69; 2: 4.61; 3: 3.58; 4: 3.09; 5: 3.65

Dear colleague, I am looking for the recorded protein stability index of the following sequence: ELERKLREVMESAVGNSSGSGQNE [FBXO28]
4.24

###

experimental-details: protein stability index of a GFP-peptide fusion (GPS, HEK-293T) (PSI 1-6); higher = more stable
measurement-setup: treatment: MLN4924 1 uM, 8 h; c terminus: a fixed tail appended
measure: protein stability index

Below, each entry is followed by its recorded protein stability index result.
KAYDHQTQELVAIKIIKNKKAFLN [DYRK1B] :: 2.62
NPTSAPGSRLAEFGAAGVNRLSIG [RSAD1] :: 3.64
GGWFCEGSFNGSEKETMQFLNDRL [KRT36] :: 3.17
SAERYNPRTNQWSPVVAMTSRRSG [KLHL20] :: 4.43
QREGTGKTVSLQIFSVLNSDDAAA [SMOC2] :: 3.35

For every item in the list below, what is its measured protein stability index?
1. LIGLISDRLRRNWPPSFLSEFRAL [SPNS1]
2. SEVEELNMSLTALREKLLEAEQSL [TEKT4]
3. PRESTDFSSSSQEAFAASAVGSGE [ZBTB22]

1. 2.1
2. 3.87
3. 5.31

For every item in the list below, what is its measured protein stability index?
1. IWEQRSATVVMMTKLEERSRVKCD [PTPRD]
2. SLQSCMHFQPNSPASDLEAALEAA [NANOGP8]
3. DDISVDSLDFTKKILHTAWHPAEN [PPP2R2C]
4. HHPENGEEAVTVLEDLESELDDPG [ZNF24]
5. CRRSIRSALGRQRLQDISSLPLPQ [SPSB4]

3.26
4.63
3.12
5.65
3.33

For every item in the list below, what is its measured protein stability index?
1. VYVSNMTDKLVTPGKYFSAAEYHA [IQUB]
2. PLTEQEESSPSHDRSRTVSASSTG [SRPK2]
3. VPHNGSSEATLPAQMSTLHVSPPP [PDLIM4]
4. DSASPVEDTSNDESSILGTDIDLQ [M1AP]
5. HTGEKPYKCLECGKAFSQNSGLIN [ZNF24]
6. IRKEMKLLEQAGSLKGSLSVEEQL [CRYL1]

1. 1.96
2. 5.51
3. 4.73
4. 5.62
5. 2.88
6. 4.37

For every item in the list below, what is its measured protein stability index?
1. AGSCRLGSAGGLGSTLGGSSYSSC [KRT17]
2. LCCAFSTDGSVLAAGTHDGSVYFW [WSB1]
3. VRKKERGREEKCVWKHGITPPLKN [TAF7L]
4. KLTREQEELEEALEVERQENEQRR [MNAT1]
5. SASEPQPASQAASSSSASADLLAG [SNAP91]

2.27
2.45
3.83
5.45
5.41

For every item in the list below, what is its measured protein stability index?
1. YSEEECKQYKAVVYSNTIQSIIAI [GNAI1]
2. GQPFNSDDRNTACHHGLVADSLQA [DLC1]
3. ADYSAALDPAYTTLEFENVQVLTM [HNF4A]

[2.06, 4.63, 2.39]

###

experimental-details: protein stability index of a GFP-peptide fusion (GPS, HEK-293T) (PSI 1-6); higher = more stable
measurement-setup: treatment: DMSO; c terminus: a fixed tail appended
Rule: protein stability index under 3 gives NO, otherwise YES.

Answered examples (2):
EQLLARGYAVNVFDIQQGFDNPQV [NSDHL] :: NO
NRIGNSGVEEIKGHPFFEGVDWEH [STK38L] :: YES

Reported protein stability index at or above 3? ARKGKGAFCNGQKLQVSQQEDITK [IMPA1]
YES

Reported protein stability index at or above 3? VGDEFLNCKLATRAKDFLPADIQA [SNX8]
NO

Reported protein stability index at or above 3? SVPIVYEKYKTQIDHYVGIARDQT [RTN3]
NO

Reported protein stability index at or above 3? MLGRLGYLNHVRAASPQDLAGGYT [MNAT1]
NO

Reported protein stability index at or above 3? RFIHLVTGCVLGSSGKVLPKWGWE [POMT2]
YES

###

experimental-details: protein stability index of a GFP-peptide fusion (GPS, HEK-293T) (PSI 1-6); higher = more stable
measurement-setup: treatment: DMSO; c terminus: a fixed tail appended
Response field class: enum, chosen by comparing protein stability index against lowest = under 4, middle = from 4 up to 5, highest = 5 and over

YKCSWCGKSFSQNTNLHTHQRTHT [ZNF75A] :: middle
IETEDQIDKKPVSEKTDESDTIPY [MIA2] :: highest

Hi, small favor: classify EDTTEEAQRRRMDEISDHAKVLTL [EIF5] by its protein stability index when you get a moment.
highest

Hi, small favor: classify VHVSESSDDDEEEEENIGCEEKAK [ACBD3] by its protein stability index when you get a moment.
highest

Hi, small favor: classify SPVTATLSDEDDGFVDLLDGENLK [CDC25A] by its protein stability index when you get a moment.
highest

Hi, small favor: classify HHPENGEEAVTVLEDLESELDDPG [ZNF24] by its protein stability index when you get a moment.
highest

Hi, small favor: classify PLTLQSQPKEPQLTCDSAQKCHSI [ZSCAN9] by its protein stability index when you get a moment.
middle

Hi, small favor: classify IRKEMKLLEQAGSLKGSLSVEEQL [CRYL1] by its protein stability index when you get a moment.
middle

Hi, small favor: classify RITGLSPGRSALIVAVLCYINLLN [SPNS1] by its protein stability index when you get a moment.
lowest

Hi, small favor: classify MGWKKACDELELHQRFLREGRFWK [ZMYND11] by its protein stability index when you get a moment.
lowest

Hi, small favor: classify EQALGKGCGADSKKKRPPQPPEES [PLK2] by its protein stability index when you get a moment.
highest

Ref: the supplement of paper PMC10567573
